Data origin: ChEMBL document CHEMBL2417451

Please respond with reported pIC50 for every item in the list.
tested on: HeLa; assay: Cytotoxicity against human HeLa cells after 24 hrs by MTT assay; assay type: cell-based
Quick note: pIC50 values are minus log10 of concentrations in mol/L.

Which pIC50 reading was recorded for the compound CC(=O)Nc1nc(C)c(-c2nn(CNc3ccc([N+](=O)[O-])cc3)c(=S)o2)s1 ?
4.02

Could you do the same for COc1ccc(NCn2nc(-c3sc(NC(C)=O)nc3C)oc2=S)cc1 , please?
4.01

###

Please respond with reported pIC50 for every item in the list.
tested on: HeLa; test: Cytotoxicity against human HeLa cells after 24 hrs by MTT assay; assay type: cell-based
pIC50: −log10 of the molar value.

Which pIC50 reading was recorded for the compound CC(=O)Nc1nc(C)c(-c2nn(CNc3cccc([N+](=O)[O-])c3)c(=S)o2)s1 ?
< 4.00

Could you do the same for CC(=O)Nc1nc(C)c(-c2nn(CNc3cccc(F)c3)c(=S)o2)s1 , please?
< 4.00

Could you do the same for CC(=O)Nc1nc(C)c(-c2nn(CNc3ccc(F)cc3)c(=S)o2)s1 , please?
< 4.00
